Tested target: Cyclooxygenase (Bos taurus, UniProt O62664+O62698)
Note to self: IC50 under 0.8 µM means fulfilled, ties and anything higher get not fulfilled.

1. Cc1ccc(CC(=O)[O-])c(N)c1C(=O)c1ccccc1.[Na+] = not fulfilled
2. Nc1c(CC(=O)[O-])cccc1C(=O)c1cccc(Cl)c1.[Na+] = not fulfilled
3. Nc1c(CC(=O)[O-])ccc(Cl)c1C(=O)c1ccccc1.[Na+] = not fulfilled

Just wondering, is IC50 of `Nc1c(CC(=O)[O-])cc(F)cc1C(=O)c1ccc(F)cc1.[Na+]` below 0.8 µM?
fulfilled

Just wondering, is IC50 of `Cc1cc(CC(=O)[O-])c(N)c(C(=O)c2ccc(Br)cc2)c1.[Na+]` below 0.8 µM?
fulfilled

---

Tested target: Cyclooxygenase (Bos taurus, UniProt O62664+O62698)
Measured IC50 of individual entries
Quick note: number first, unit second.

1. Nc1c(CC(=O)[O-])cc(Cl)cc1C(=O)c1ccc(O)cc1.[Na+] = 30000 nM
2. Nc1c(CC(=O)[O-])cc(Cl)cc1C(=O)c1ccc(I)cc1.[Na+] = 30 nM
3. Nc1c(CC(=O)[O-])cccc1C(=O)c1ccc(Cl)cc1.[Na+] = 300 nM

For the compound `Nc1c(CC(=O)[O-])cccc1C(=O)c1ccc(-c2ccccc2)cc1.[Na+]` , what IC50 is on record?
80 nM

For the compound `Cc1cc(CC(=O)[O-])c(N)c(C(=O)c2ccc(Cl)cc2Cl)c1.[Na+]` , what IC50 is on record?
1000 nM

---

Measured IC50 of individual entries
Tested target: Cyclooxygenase (Bos taurus, UniProt O62664+O62698)
Lab book: enter the figure in nM, no units written.

Some compounds with recorded IC50:
1) Cc1ccc(C(=O)c2cccc(CC(=O)[O-])c2N)cc1.[Na+] = 300
2) COc1cc(CC(=O)[O-])c(N)c(C(=O)c2ccc(Br)cc2)c1.[Na+] = 900
3) Cc1ccc(C(=O)c2cc(F)cc(CC(=O)[O-])c2N)cc1.[Na+] = 70
4) Nc1c(CC(=O)[O-])cc(F)cc1C(=O)c1ccc(Br)cc1.[Na+] = 40
5) Cc1cc(CC(=O)O)n(C)c1C(=O)c1ccc(Cl)cc1 [ZOMEPIRAC] = 15000

Write down the reported IC50 of `Nc1c(CC(=O)[O-])cccc1C(=O)c1ccc(Br)cc1Cl.[Na+]` , test system: Cyclooxygenase (Bos taurus, UniProt O62664+O62698).
50

Write down the reported IC50 of `Nc1c(CC(=O)[O-])cc(Cl)cc1C(=O)c1ccc(Br)cc1.[Na+]` , test system: Cyclooxygenase (Bos taurus, UniProt O62664+O62698).
20

---

List of log10 of IC50 tested on Cyclooxygenase (Bos taurus, UniProt O62664+O62698).
Transform log10 | Measure IC50 | Unit µM

1. Nc1c(CC(=O)[O-])cc(Cl)cc1C(=O)c1ccc(Br)cc1Cl.[Na+] = -1.30
2. Nc1c(CC(=O)[O-])cccc1C(=O)c1ccc(Br)cc1.Nc1c(CC(=O)[O-])cccc1C(=O)c1ccc(Br)cc1.O.O.O.[Na+].[Na+] [BROMFENAC SODIUM] = -1.10
3. Nc1c(CC(=O)[O-])cccc1C(=O)c1ccc(I)cc1.[Na+] = -1.15
4. Nc1c(CC(=O)[O-])cc(Br)cc1C(=O)c1ccc(Br)cc1.[Na+] = -0.10

// next entry
Write down the reported log10 of IC50 of `Nc1c(CC(=O)[O-])cccc1C(=O)c1ccc(F)cc1.[Na+]` , test system: Cyclooxygenase (Bos taurus, UniProt O62664+O62698).
-0.05
